- testMethodNotes: chemical genetic growth profiling, strain panel (AID 1159580);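 further: tested at 20 µM; growth read once vehicle control cultures reached saturation at 30 °C; 1 = growth at the plate median or of vehicle wells; lower values mean less growth of the strain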
- conditionSet: S. cerevisiae deletion strains, growth OD, locus YEL061C, strain CIN8 (second series), hits give low values
About 2,000 (36%) of roughly 5,500 compounds were called active. Inconclusive results (about 18%) are left out. This is one part of the list.
Form field: normalized growth (one value per entry).
Simply state the number, no unit and no words.

Example entries begin here.
Clc1ccc(C(c2ccccc2Cl)C(Cl)Cl)cc1 (stereo unspecified) : 0.984
C=CCS(=O)C[C@H](N)C(=O)O (stereo partly specified) : 1.01
O=c1oc2ccccc2cc1O : 0.976
Cc1cc(/C=C/c2ccc3cc(N(C)C)ccc3[n+]2C)c(C)n1-c1ccccc1 : 1
C[C@]12CCC3c4ccc(OC(=O)c5ccccc5)cc4CCC3C1CCC2=O (stereo partly specified) : 0.981
CCCCC(=O)O[C@]1(C(=O)CO)CCC2C3CCC4=CC(=O)CC[C@]4(C)C3[C@@H](O)C[C@@]21C (stereo partly specified) : 0.98
CC(=O)O[C@H]1C[C@@]2(C)[C@@H](C[C@@H](O)C3[C@]2(C)CC[C@H]2[C@H](C)[C@H](O)CC[C@]32C)/C1=C(/CCC=C(C)C)C(=O)O (stereo partly specified) : 1.01
O=C(O)COc1ccc(Cl)cc1Cl : 0.989
O=C(O)CCC1NCC2CC1CN1CCCCC21 (stereo unspecified) : 0.97
CN(C)CCC(c1ccccc1)c1ccccn1 (stereo unspecified) : 1.01

The record that follows has no normalized growth shown yet.
Q. Give its normalized growth value. Item: CC(=O)Oc1ccc2c(c1)CCC1C2CC[C@]2(C)C(=O)CCC12 (stereo partly specified)
A. 0.977

* * *

- testMethodNotes: chemical genetic growth profiling, strain panel (AID 1159580)
- conditionSet: S. cerevisiae deletion strains, growth OD, locus YHR205W, strain SCH9, hits give low values
Among all 5,500 compounds or so, about 2,000 (36%) were called active. About 18% were inconclusive and are not listed. This is one part of the list.
So basically: is normalized growth under 0.9? Then class 1. Not under? Then class 0.

Study these solved cases before continuing.
O=S(=O)(NCc1ccc(C(F)(F)F)cc1)c1cccc(C(F)(F)F)c1 : class 0
O=[N+]([O-])c1ccsc1Oc1cccc(C(F)(F)F)c1 : class 1
CC1=CC(=O)N(c2ccc(OC(F)(F)F)cc2)C1=O : class 1

Q. State whether 0.9 exceeds normalized growth recorded for `N#CC(C#N)=Cc1c(-c2ccccc2Cl)[nH]c2ccccc12` .
A. class 1

Q. State whether 0.9 exceeds normalized growth recorded for `O=C(Nc1cc(Cl)ccc1O)c1ccccc1CSc1ccc(Cl)cc1` .
A. class 1

* * *

- testMethodNotes: chemical genetic growth profiling, strain panel (AID 1159580)
- conditionSet: S. cerevisiae deletion strains, growth OD, locus YOR061W, strain CKA2, hits give low values
About 2,000 (36%) of roughly 5,500 compounds were called active. Inconclusive results (about 18%) are left out. This is one part of the list.
parameter: normalized growth
Simply state the number, no unit and no words.

Example entries begin here.
O=C(NNc1ccccc1)c1cc(-c2ccc(Cl)cc2)oc1C(F)(F)F : 0.795
O=S(=O)(NCc1ccc(C(F)(F)F)cc1)c1cccc(C(F)(F)F)c1 : 0.987
CCC(C)C(=O)c1c(O)c(C)c2oc3c(C)c(O)c(C(=O)C(C)CC)c(O)c3c2c1O (stereo not given) : 0.932
O=S(=O)(NCc1ccc(C(F)(F)F)cc1)c1cc(Br)c(Br)s1 : 0.848

The record that follows has no normalized growth shown yet.
Q. Give its normalized growth value. Item: `O=S(=O)(Nc1cc(Cl)c(Cl)cc1Cl)c1cc(C(F)(F)F)cc(C(F)(F)F)c1`
A. 0.93

* * *

- testMethodNotes: chemical genetic growth profiling, strain panel (AID 1159580)
- conditionSet: S. cerevisiae deletion strains, growth OD, locus YDL040C, strain nat1, hits give low values
The whole screen tested about 5,500 compounds, of which about 2,000 (36%) were called active. Inconclusive results (about 18%) are left out. The list shows a part of the results.
Form field: normalized growth (one value per entry).
Simply state the number, no unit and no words.

Example entries begin here.
Cc1ccc(C(=O)c2ccc(CC(=O)O)n2C)cc1 : 1.01
C=C1C(=O)[C@]23[C@H](O)[C@H]1CC[C@H]2[C@@]12CO[C@]3(O)[C@H](O)[C@@H]1C(C)(C)CC[C@@H]2O : 0.993
COc1ccc(CCC(=O)c2c(O)cc(O[C@@H]3O[C@H](CO)C(O)[C@H](O)C3O[C@@H]3O[C@@H](C)[C@H](O)[C@@H](O)[C@H]3O)cc2O)cc1O (stereo partly drawn) : 0.998
COc1cc(NS(C)(=O)=O)ccc1Cc1c2ccccc2nc2ccccc12 : 0.994
Cc1cc(CC(=O)O)n(C)c1C(=O)c1ccc(Cl)cc1 : 1.02

Q. Give its normalized growth value. Item: O=c1[nH]c(=O)n(C2C[C@H](O)[C@@H](CO)O2)cc1C(F)(F)F (stereo partly drawn)
A. 0.976

Q. Give its normalized growth value. Item: `COc1ccc2oc3ccccc3c(=O)c2c1`
A. 0.935

Q. Give its normalized growth value. Item: `Cc1oncc1C(=O)Nc1ccc(C(F)(F)F)cc1`
A. 0.99

* * *

- testMethodNotes: chemical genetic growth profiling, strain panel (AID 1159580);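 further: tested at 20 µM; growth read once vehicle control cultures reached saturation at 30 °C; 1 = growth at the plate median or of vehicle wells; lower values mean less growth of the strain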
- conditionSet: S. cerevisiae deletion strains, growth OD, locus YBR160W, strain CDC28
Out of some 5,500 compounds screened, about 2,000 (36%) were called active. Inconclusive results (about 18%) are left out. Cut-off read from the data, not from the text of the source: active = normalized growth mostly below about 0.91 (no sharp cut-off); inconclusive = no clear call, values can overlap the other calls; inactive = mostly above about 0.92. Some of the results follow.
Your answer must be one of the following: label 1 (active), label 0 (inactive)

Study these solved cases before continuing.
Nc1ccccc1C(=O)Nc1cc(C(F)(F)F)cc(C(F)(F)F)c1 : label 0
Cn1nccc1-c1cc(Cl)cc(Cl)c1O : label 0
FC(F)(F)c1cc(NC(=S)SCCSC(=S)Nc2cc(C(F)(F)F)cc(C(F)(F)F)c2)cc(C(F)(F)F)c1 : label 0
Clc1ccccc1-c1csc(-c2cccnc2)n1 : label 0
CC(C)(C)C1=C(C#N)C(c2c(Cl)cccc2Cl)C(C#N)=C(N)O1 (stereo not drawn) : label 0

Q. I would be grateful if you could indicate the recorded call for `Cc1ccccc1/C=C/c1c[nH]c2ccccc12` .
A. label 0

Q. I would be grateful if you could indicate the recorded call for `CC1=CC(=O)N(c2ccc(OC(F)(F)F)cc2)C1=O` .
A. label 1

Q. I would be grateful if you could indicate the recorded call for Cc1ccc(NC(=S)C(C#N)C(=O)N2CCOCC2)c(C)c1 (stereo not drawn) .
A. label 0

Q. I would be grateful if you could indicate the recorded call for `COc1ccc(-c2csc(-c3cccnc3)n2)cc1` .
A. label 0

Q. I would be grateful if you could indicate the recorded call for `N#Cc1cccc(CSc2nc3ccc(C(F)(F)F)cc3[nH]2)c1` .
A. label 0

Q. I would be grateful if you could indicate the recorded call for `N#CC(C#N)=Cc1c(-c2ccccc2Cl)[nH]c2ccccc12` .
A. label 0

Q. I would be grateful if you could indicate the recorded call for `C/C(=N/NC(=S)NCC(C)(C)C)c1cc(F)cc(Cl)c1O` .
A. label 0

Q. I would be grateful if you could indicate the recorded call for `COc1ccc2c(c1)CCc1sc(NC(=O)c3ccco3)nc1-2` .
A. label 0

* * *

- testMethodNotes: chemical genetic growth profiling, strain panel (AID 1159580);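 further: tested at 20 µM; growth read once vehicle control cultures reached saturation at 30 °C; 1 = growth at the plate median or of vehicle wells; lower values mean less growth of the strain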
- conditionSet: S. cerevisiae deletion strains, growth OD, locus YMR223W, strain ubp8
Screen size: about 5,500 compounds; about 2,000 (36%) were called active. Another 18% or so got no clear call; they are omitted. No stated cut-off is given here; in the data, active means normalized growth mostly below about 0.91 (no sharp cut-off); inconclusive means no clear call, values can overlap the other calls; inactive means mostly above about 0.92. Some of the results follow.
Your answer must be one of the following: active, inactive

Study these solved cases before continuing.
COC(=O)/C(C)=C\CC12OC(C)(C)C3CC(C=C4C(=O)c5c(OC)c6c(c(CC=C(C)C)c5OC431)OC(C)(CCC=C(C)C)C=C6)C2=O (stereo unspecified) : inactive
C=C[C@@]1(C)CC(=O)[C@@]2(O)[C@](C)(O1)[C@@H](OC(C)=O)[C@@H](O)C1C(C)(C)CC[C@H](O)[C@@]12C (stereo partly specified) : inactive
O=c1cccc2n1CC1CC2CN2CCCC[C@@H]12 (stereo partly specified) : inactive
Oc1c(Cl)cc(Cl)c(Cl)c1Cc1c(O)c(Cl)cc(Cl)c1Cl : active
NCCCC(=O)O : inactive

Q. I would be grateful if you could indicate the recorded call for `Fc1ccc([C@@H]2CCNC[C@H]2COc2ccc3c(c2)OCO3)cc1` .
A. inactive

Q. I would be grateful if you could indicate the recorded call for `NCCCCC(=O)O` .
A. inactive

Q. I would be grateful if you could indicate the recorded call for `Cc1ccc(C(=O)c2ccc(CC(=O)O)n2C)cc1` .
A. inactive

* * *

- testMethodNotes: chemical genetic growth profiling, strain panel (AID 1159580);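 further: tested at 20 µM; growth read once vehicle control cultures reached saturation at 30 °C; 1 = growth at the plate median or of vehicle wells; lower values mean less growth of the strain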
- conditionSet: S. cerevisiae deletion strains, growth OD, locus YNL071W, strain lat1
In all, about 5,500 compounds went through this assay and about 2,000 (36%) were called active. Inconclusive results (about 18%) are left out. Cut-off read from the data, not from the text of the source: active = normalized growth mostly below about 0.91 (no sharp cut-off); inconclusive = no clear call, values can overlap the other calls; inactive = mostly above about 0.92. This is one part of the list.
Your answer must be one of the following: active, inactive

Study these solved cases before continuing.
COc1ccc(CCC(=O)c2c(O)cc(O[C@@H]3O[C@H](CO)C(O)[C@H](O)C3O[C@@H]3O[C@@H](C)[C@H](O)[C@@H](O)[C@H]3O)cc2O)cc1O (some centres undefined) : inactive
CC(=O)O[C@]1(C)CC[C@@]23CC1C(C)(C)[C@@H]2CC[C@H]3C : inactive
Cc1oncc1C(=O)Nc1ccc(C(F)(F)F)cc1 : active

Q. I would be grateful if you could indicate the recorded call for CC(=O)Oc1c2c(c3c(c1CC=C(C)C)O[C@]14C(=C[C@@H]5CC1C(C)(C)OC4(C/C=C(\C)C(=O)O)C5=O)C3=O)OC(C)(CCC=C(C)C)C=C2 (some centres undefined) .
A. active
